- Test system: Trichophyton mentagrophytes
- assay: Antifungal activity against Trichophyton mentagrophytes 445 after 72 hrs by broth microdilution method
- Type: functional, organism-based
- conditionDescription: Trichophyton mentagrophytes, 445, 72 h
pIC50: −log10 of the molar value.
assayReadout: pIC50

Entry O=[N+]([O-])c1cc(C[Se]c2nnnn2C2CCCCC2)cc([N+](=O)[O-])c1 : reported pIC50 = ?
< 3.30

Entry O=[N+]([O-])c1ccc(C[Se]c2nnnn2C2CCCCC2)c([N+](=O)[O-])c1 : reported pIC50 = ?
4.51

Entry C[C@@H]1[C@H](O)[C@@H](C)/C=C/C=C/C=C/C=C/C=C/C=C/C=C/[C@H](O[C@@H]2O[C@H](C)[C@@H](O)[C@H](N)[C@@H]2O)C[C@@H]2O[C@](O)(C[C@@H](O)C[C@@H](O)[C@H](O)CC[C@@H](O)C[C@@H](O)CC(=O)O[C@H]1C)C[C@H](O)[C@H]2C(=O)O [AMPHOTERICIN B] : reported pIC50 = ?
6.27

Entry O=[N+]([O-])c1cc(CSc2nnnn2Cc2ccccc2)cc([N+](=O)[O-])c1 : reported pIC50 = ?
< 3.30

Entry OC(Cn1cncn1)(Cn1cncn1)c1ccc(F)cc1F [FLUCONAZOLE] : reported pIC50 = ?
3.98

Entry O=[N+]([O-])c1cc(C[Se]c2nnnn2Cc2ccccc2)cc([N+](=O)[O-])c1 : reported pIC50 = ?
< 3.30

Entry O=C(O)c1cccc(-n2nnnc2SCc2cc([N+](=O)[O-])cc([N+](=O)[O-])c2)c1 : reported pIC50 = ?
< 3.30

Entry O=[N+]([O-])c1cc(CSc2nnnn2C2CCCCC2)cc([N+](=O)[O-])c1 : reported pIC50 = ?
< 3.30

Entry O=[N+]([O-])c1cc(CSc2cccc[n+]2[O-])cc([N+](=O)[O-])c1 : reported pIC50 = ?
< 3.30

Entry O=[N+]([O-])c1cc(CSc2nnnn2-c2ccc(Cl)c(Cl)c2)cc([N+](=O)[O-])c1 : reported pIC50 = ?
< 3.90

The measured values listed here are drawn from ChEMBL document CHEMBL3297661.
